Test system: NCI-H23
Experiment: NCI tumour cell line growth inhibition, 48 h
The source made the active and inactive calls. No stated cut-off is given here; in the data, active = GI50 up to about 1.1 µM and inactive = higher.
# output must be one of active, inactive

Consider the following illustrative entries.
O=C(CC(O)(C(F)(F)F)C(F)(F)F)c1cccs1; inactive
c1ccc(NN(Cc2cnccn2)c2ccccc2)cc1; inactive
O=C1c2ccccc2N2OC3(N4CCOCC4)CCCC3C12c1ccccc1 (stereo unspecified); inactive

Task: Which result was noted for this compound in the test: C=C(C)[C@@H]1CC[C@]2(C(=O)OC)CC[C@]3(C)[C@H](CC[C@@H]4[C@@]5(C)CC[C@H](O)C(C)(C)[C@@H]5CC[C@]43C)[C@@H]12 [METHYL BETULINATE]
Result: inactive

Task: Hi team, can someone confirm the assay call for N#CCCN(C(=O)Nc1ccccc1)[C@H]1CCCC[C@@H]1N(C(=O)Nc1ccccc1)c1ccccc1 ?
Result: inactive

Task: State the result this test recorded for CNS(=O)(=O)NN(C)S(=O)(=O)c1ccc(F)cc1 .
Result: inactive

Task: Answer briefly: the call reported for CN(CCCNc1ccc2ncn3c4ccccc4c(=O)c1c23)CCCN1C(=O)c2cccc3cc([N+](=O)[O-])cc(c23)C1=O in this assay.
Result: active

Task: What call does the record list for N#C/C(=C\c1ccccc1Br)C(=O)c1ccccc1 ?
Result: inactive

Task: Status in this test for COC(=O)C1=C(C)NC(C)=C(C(=O)OCCCN2CCC(c3ccccc3)(c3ccccc3)CC2)[C@H]1c1cccc([N+](=O)[O-])c1 [NIGULDIPINE] ?
Result: inactive

Task: Please indicate how the test categorized O=C1NC2(CCN(CCCC3(c4ccc(F)cc4)OCCO3)CC2)Oc2ccccc21 .
Result: inactive

Task: Outcome? N#CC(NCCO)=C1C(=O)c2ccccc2C1=O
Result: inactive

----------
Test system: OVCAR-4
Assay: NCI tumour cell line growth inhibition, 48 h
The source made the active and inactive calls. Cut-off read from the data, not from the text of the source: active = GI50 up to about 1.1 µM and inactive = higher.
recorded.metric: GI50

Example compounds with recorded GI50:
O=C(c1cc2c(c3ccccc13)NCCN=C2C(F)(F)F)C(F)(F)F; 38.7 µM (inactive)
C=C1C(=O)OC2CC(C)C3(O)CCC(=O)C3(C)CC12 (stereo not given); 18.7 µM (inactive)
CCCCCCCCCCCCCCCCP(=O)(O)OP(=O)(O)OCC1OC(n2cnc3c(N)ncnc32)C(O)C1O (stereo not given); 36.3 µM (inactive)
CCCCCCCCCCCCCCCCCc1cc(Cl)nc(Cl)n1; > 100 µM (inactive)
COc1cc(/C=N/N=C2NCCCCN2)ccc1O; > 100 µM (inactive)

I'm hoping you can list GI50 for every compound here, please.
1. COc1ccc(OC)c(NC(=O)C(=O)C(C(C)=O)c2nc3ccc(Cl)cc3nc2O)c1 (stereo not given)
2. CCOP(=O)(OCC)C1C(=O)O[C@H]2CCCC[C@@H]12 (stereo not given in full)
3. COc1c(O)cc(C(=O)O[C@@H]2Cc3c(O)cc(O)cc3O[C@@H]2c2cc(O)c(O)c(O)c2)cc1O
4. CCOc1ccc(/N=N/C2C(=O)N(C(=O)CC(=O)Nc3ccc(Cl)cc3)N=C2C)cc1 (stereo not given)
5. N#Cc1nc(C#N)c(N)[nH]1

Result:
1. > 50 µM (inactive)
2. > 100 µM (inactive)
3. 20.2 µM (inactive)
4. > 100 µM (inactive)
5. > 100 µM (inactive)

----------
Assign GI50 to each entry below.
Tested on: HCT-15
Test: NCI tumour cell line growth inhibition, 48 h
Answers are plain numbers, in µM.

Illustrative cases are given below, each with its answer.
CC(=O)OC1(C)CC(C)C(=O)C(C(O)CC2CC(=O)NC(=O)C2)C1 (stereo not given); 0.0348
O=C1/C(=C/c2ccccc2)CN(C(=O)CCN2CCOCC2)C/C1=C\c1ccccc1; 2.14
CCOC1(OCC)C2C=CC1C(COS(=O)(=O)c1ccc(C)cc1)C2COS(=O)(=O)c1ccc(C)cc1 (stereo not given); 26
CCCCCCCCCCCCCCCCP(=O)(O)OP(=O)(O)OCC1OC(n2cnc3c(N)ncnc32)C(O)C1O (stereo not given); 23.8
OC1(c2ccccc2)CCN(Cc2c[nH]c3ccccc23)CC1; 49.5

Value sought for every listed compound: GI50.
1. Brc1ccc2ns[s+]c2c1
2. O=C(NCCCN(CCCCN(CCCNC(=O)C(F)(F)F)CCCc1ccccc1)CCCc1ccccc1)C(F)(F)F

Result:
[0.343, 1.44]

----------
System: SK-MEL-28
Assay: NCI tumour cell line growth inhibition, 48 h
The source made the active and inactive calls. Rule as the data show it: active = GI50 up to about 1.1 µM and inactive = higher.
Assignment: determine reported GI50 for the given compounds.

CC(=O)OC[C@@H]1[C@H]2CC[C@]3(C)[C@@H](OC(C)=O)CC[C@H]3[C@@H]2CC[C@H]1C1(C)SCCS1; > 25 µM (inactive)
C[C@@H]1CC[C@@]2(NC1)O[C@H]1C[C@H]3[C@@H]4CC[C@H]5C[C@@H](O)CC[C@]5(C)[C@H]4CC[C@]3(C)[C@H]1[C@@H]2C; > 100 µM (inactive)
COc1cc(/C=N/N=C2NCCCCN2)ccc1O; > 100 µM (inactive)
COc1ccc2c(c1)nc1n2C(c2c(F)cccc2F)SC1 (centres undefined); > 100 µM (inactive)
COC(=O)C1=C(C(=O)OC)C2(C)C=CC1O2 (centres undefined); 16 µM (inactive)

Please look at the items below and tell me GI50 for each one, in order.
1. Cc1c(F)c(N)c2c(=O)cc(-c3ccc(N)c(F)c3)oc2c1F
2. CC(=O)NC1C(OCc2ccccc2)OC(CO)C(O)C1OCC(=O)NC(C(=O)NC(CCC(=O)NCCCCCC(=O)Nc1ccc2c(c1)CN1C(=O)c3ccccc3C1=N2)C(N)=O)C(C)C (centres undefined)
3. COC(=O)/C(=N/NC(C)(C)C)C(C(=O)C=C(C)C)C(=O)C(=O)Nc1ccc(Cl)cc1C (centres undefined)
4. CC[C@H](CCCCC1CC[C@@H]2CC(=O)C[C@H]12)OC (some centres undefined)

Result:
45.1 µM (inactive)
20.8 µM (inactive)
> 100 µM (inactive)
> 100 µM (inactive)

----------
Tested on: SK-MEL-5
Assay: NCI tumour cell line growth inhibition, 48 h
Active and inactive are the calls of the source. Rule as the data show it: active = GI50 up to about 1.1 µM and inactive = higher.
For each entry below, report its GI50 value.

Cc1cc2c(C)n(Cc3ccc(Cl)cc3Cl)nc2c(C#N)c1C; 85.3 µM (inactive)
Oc1ccc2c3c1OC1C(=NN=C4CCC5(O)C6Cc7ccc(O)c8c7C5(CCN6CC5CC5)C4O8)CCC4(O)C(C2)N(CC2CC2)CCC314 (stereo not given); 19 µM (inactive)
CC(C)(OCc1ccccc1)c1ccccc1P(c1ccccc1)c1ccccc1; 35 µM (inactive)
O=C1/C(=C/c2ccccc2)CN(C(=O)CCN2CCOCC2)C/C1=C\c1ccccc1; 2.17 µM (inactive)

// next item, GI50 requested
Task: Which GI50 value belongs to Cc1cc(CC(=O)NCCO)n(CCO)c(=O)c1 ?
Result: > 100 µM (inactive)

----------
System: SK-OV-3
Test: NCI tumour cell line growth inhibition, 48 h
Activity calls are given as the source filed them. No stated cut-off is given here; in the data, active = GI50 up to about 1.1 µM and inactive = higher.
Give GI50 for every item shown.

Consider the following illustrative entries.
CCOP(=O)(OCC)C1C(=O)O[C@H]2CCCC[C@@H]12 (stereo not given in full); > 100 µM (inactive)
CN(CCCNc1ccc2ncn3c4ccccc4c(=O)c1c23)CCCN1C(=O)c2cccc3cc([N+](=O)[O-])cc(c23)C1=O; 1.28 µM (inactive)
COc1ccc(/C=C(\C(=C/c2ccc(OC)cc2)[N+](=O)[O-])[N+](=O)[O-])cc1; 16.6 µM (inactive)
O=C(Nc1cccc(O)c1)C(=O)C(C(=O)c1ccccc1F)C1OC(=O)c2ccccc21 (stereo not given); 36.1 µM (inactive)

Task: Field request: GI50 | item: Cc1noc(NC(=O)Nc2ccccc2F)c1C#N
Result: > 100 µM (inactive)

----------
Tested on: SK-MEL-28
Experiment: NCI tumour cell line growth inhibition, 48 h
Active and inactive are the calls of the source. Cut-off read from the data, not from the text of the source: active = GI50 up to about 1.1 µM and inactive = higher.
recorded.metric: GI50

CC1=NC=C(O)c2ccccc2O1; > 100 µM (inactive)

I would be grateful if you could provide GI50 for each of the following entries.
1. CC1(C)OC2OC(COC(=O)c3ccc(C#N)cc3)C3OC(C)(C)OC3C2O1 (stereo unspecified)
2. O=C(Nc1ccc(Br)cc1)C(=O)C(C(=O)c1ccc(Cl)c(Cl)c1)C1OC(=O)c2ccccc21 (stereo unspecified)
3. CCCCCCC(O)CC[C@H]1CCC[C@@H](C)N1 (stereo partly specified)

Result:
1. > 75 µM (inactive)
2. 13.7 µM (inactive)
3. > 31.6 µM (inactive)

Items follow; give GI50 for each.
1. O[C@@]1(c2cccs2)c2cccc(Cl)c2[C@](O)(c2cccs2)c2cccc(Cl)c21
2. O=C1N/C(=N/N=C/c2c[nH]c3ccccc23)N/C1=C\c1cccs1
3. O=C1c2ccccc2-c2nc(-c3cccnc3)cc3c2c1nc1ccccc13
4. CC(C)Sc1nc(C#N)cc2c1CCCC2
5. CN(CCO)CCCC1COc2ccccc2O1 (stereo unspecified)
6. OC1(c2ccccc2)CCN(Cc2c[nH]c3ccccc23)CC1
7. COC(=O)C1=C(O)C(C(=O)OC)[C@]2(O)[C@@H](C(=O)OC)[C@H]1[C@H](C)[C@@H](c1ccccc1)[C@@H]2C(=O)OC (stereo partly specified)

Result:
1: 17.3 µM (inactive); 2: > 100 µM (inactive); 3: > 100 µM (inactive); 4: 29.7 µM (inactive); 5: > 100 µM (inactive); 6: 20.7 µM (inactive); 7: > 100 µM (inactive)
